# System: UO-31 renal
# protocolDescription: NCI tumour cell line growth inhibition, 48 h
TGI reference
Just the number in µM, nothing appended.

O/N=C1/C(=C/c2ccc(Cl)c(Cl)c2)CCCC1C(NO)c1ccc(Cl)c(Cl)c1 (stereo unspecified) = 35.7
COC(=O)[C@@H](C)C[C@H](Cc1ccc2ccccc2c1)NC(=O)c1csc([C@@H](C[C@H](C(C)C)N(C)C(=O)[C@@H](NC(=O)[C@H]2CCCCN2C)C(C)C)OC(C)=O)n1 = 5.18

Data request: Requested field: TGI. Item: `CCN(CC)Cc1cc(Nc2c3ccc(Cl)cc3nc3ccc(OC)cc23)ccc1O`
Data returned: 16.1

Data request: Requested field: TGI. Item: `Oc1ccc(O)c(Cc2ccccc2)c1`
Data returned: 28.4

---

TGI reference
# System: HOP-62 NSCLC
# protocolDescription: NCI tumour cell line growth inhibition, 48 h

Data request: Requested field: TGI. Item: `N#Cc1ccccc1NC(=O)/C(=N\Nc1ccc([N+](=O)[O-])cc1)C1C(=O)NC(=O)NC1=O`
Data returned: > 100 µM

Data request: Requested field: TGI. Item: CN(C)C1C(=O)C(C(=O)NCN2CCCC2)=C(O)C2(O)C(=O)C3=C(O)c4c(O)cccc4C(C)(O)C3CC12 (stereo not drawn)
Data returned: > 100 µM

Data request: Requested field: TGI. Item: COC(=O)/C=C/C1C2C3(CCC(C)C12C)OCCS3 (stereo not drawn)
Data returned: > 100 µM

Data request: Requested field: TGI. Item: `CN(C)CCCNC(=O)c1cc2/c(=C\c3ccc(N(C)C)cc3)c3ccccc3n2[n+]1C`
Data returned: > 100 µM

Data request: Requested field: TGI. Item: `O=C(CSc1nc2ccccc2c2ccccc12)c1ccccc1`
Data returned: > 100 µM

Data request: Requested field: TGI. Item: `COc1cc2c3c(n(CCCNCCNCCN)c(=O)c2cc1OC)-c1cc2c(cc1C3=O)OCO2`
Data returned: 20.5 µM

Data request: Requested field: TGI. Item: `O=C(Nc1nc(-c2ccc(Cl)cc2)cs1)c1cc(-c2ccc(Br)cc2)nc2ccc(Cl)cc12`
Data returned: > 100 µM

Data request: Requested field: TGI. Item: CC#CC#C/C=C1/O[C@]2(CCC(OC(=O)CC(C)C)CO2)[C@@H]2O[C@H]12 (stereo partly drawn)
Data returned: > 100 µM

---

# Tested on: A549 NSCLC
# protocolDescription: NCI tumour cell line growth inhibition, 48 h
TGI reference

Cc1cc2nc(C#N)c(N3CCN(c4ccc([N+](=O)[O-])cc4)CC3)nc2cc1C = > 100 µM
O=C(COc1nc2ccccc2nc1-c1ccccc1)Nc1ccc(Cl)cc1 = > 100 µM
CNc1ccccc1-c1nc2ccccc2c(=O)o1 = > 100 µM
COc1cc([C@@H]2c3cc4c(cc3[C@@H](Nc3ccc(N=Cc5ccc(C(=O)O[C@@H](C(=O)O[C@H]6C[C@@]7(O)[C@@H](OC(=O)c8ccccc8)[C@@H]8[C@]9(OC(C)=O)CO[C@@H]9C[C@H](O)[C@@]8(C)C(=O)[C@H](OC(C)=O)C(=C6C)C7(C)C)[C@@H](NC(=O)c6ccccc6)c6ccccc6)cc5)cc3)[C@H]3COC(=O)[C@H]23)OCO4)cc(OC)c1O = > 50 µM
COc1cc2c(cc1OCCCCCn1c(-c3ccc(OCc4ccccc4)cc3)nc3cc(N4CCOCC4)ccc31)N=C[C@@H]1CCCN1C2=O = 7.95 µM
CCOC(=O)/C=C(/C(=O)OCC)n1cc(C)c(=O)n(/C(=C/C(=O)OCC)C(=O)OCC)c1=O = 31.8 µM

Data request: Requested field: TGI. Item: C/C(=C\COc1cc(O)c2c(c1)C(=O)c1cc(C)cc(O)c1C2=O)CCC1OC1(C)C (stereo not drawn)
Data returned: > 100 µM

Data request: Requested field: TGI. Item: `COc1ccc(/C=C/C(=O)c2cc3c(N)c(C(=O)Nc4cccc(Cl)c4C)sc3nc2C)cc1`
Data returned: > 50 µM

Data request: Requested field: TGI. Item: `CC(C)=[CH][Sb]([Br])([CH]=C(C)C)([CH]=C(C)C)[c]1ccccc1`
Data returned: > 100 µM

Data request: Requested field: TGI. Item: `O=c1cc(-c2ccccc2)c2ccc(O)c(CN(CCCl)CCCl)c2o1`
Data returned: 57.3 µM

Data request: Requested field: TGI. Item: `O=[N+]([O-])c1ccc(C2=Nn3c(nnc3-c3ccccc3)SC2)o1`
Data returned: > 100 µM

Data request: Requested field: TGI. Item: `COc1cc2c3c(n(CCCNCCNCCN)c(=O)c2cc1OC)-c1cc2c(cc1C3=O)OCO2`
Data returned: 62.2 µM

Data request: Requested field: TGI. Item: `N[C@]1(C(=O)O)C[C@@H]2C(Br)=NO[C@@H]2C1`
Data returned: > 100 µM

Data request: Requested field: TGI. Item: `COc1cc2ccnc(C=O)c2cc1OC`
Data returned: > 100 µM

---

TGI reference
# Test system: ACHN renal
# protocolDescription: NCI tumour cell line growth inhibition, 48 h
Just the number in µM, nothing appended.

CC(=O)Oc1c(-c2ccccc2)oc2ccccc12 = 3.28

Data request: Notebook entry, ACHN renal assay: TGI of `Cn1ncc(NC(=O)c2nc(-c3c(F)cccc3F)sc2N)c1N1CC[C@@H](N)[C@H](F)CC1` = ?
Data returned: 16.7

Data request: Notebook entry, ACHN renal assay: TGI of `COc1cc(-c2ccc(-c3ccc(C(=N)N)cc3)s2)cc(OC)c1OC` = ?
Data returned: 3.19

---

# Test system: A549 NSCLC
# protocolDescription: NCI tumour cell line growth inhibition, 48 h
quantityMeasured: GI50

These recorded examples may help you get a feel for the data.
COc1ccc(-c2cc(-c3ccccc3)nc(SCCCC(=O)NO)n2)cc1OC = 2.06 µM
O=C([O-])c1cc(I)cc(I)c1[OH2+].O=C([O-])c1cc(I)cc(I)c1[OH2+].[Mn+2] = 56.4 µM
O=C(COc1nc2ccccc2nc1-c1ccccc1)Nc1ccc(Cl)cc1 = 27.8 µM
O=C(/C=C/c1ccc(Cl)cc1)c1ccc(Nc2nc(Nc3ccc(F)cc3)nc(Nc3ccc(F)cc3)n2)cc1 = 49.9 µM

Data request: Notebook entry, A549 NSCLC assay: GI50 of `N#Cc1c(-c2ccccc2)cc(-c2ccccc2)n(CCCC(=O)NO)c1=O` = ?
Data returned: 2.2 µM

Data request: Notebook entry, A549 NSCLC assay: GI50 of `Clc1ccc(OCc2nn3c(CCCCc4nnc5sc(COc6ccc(Cl)cc6Cl)nn45)nnc3s2)c(Cl)c1` = ?
Data returned: 82.6 µM

---

# Test system: SK-MEL-28 melanoma
# protocolDescription: NCI tumour cell line growth inhibition, 48 h
quantityMeasured: TGI

O=C1C(Cl)C(c2cc3cc(Br)ccc3nc2Cl)N1c1ccc(F)c(Cl)c1 (centres undefined) = 34.5 µM
C1CSC(Sc2nc(SC3=NCCS3)nc(SC3=NCCS3)n2)=N1 = > 100 µM
CCOC(=O)C(=O)/C(=C/n1c(=S)[nH]c2ccc([N+](=O)[O-])cc21)C(=O)OCC = > 100 µM
CC12CP(=O)(c3ccccc3)CC1c1ccccc1C2c1ccccc1 (centres undefined) = 75 µM
c1ccc([P+](c2ccccc2)(c2ccccc2)c2ccc3c4ccc([P+](c5ccccc5)(c5ccccc5)c5ccccc5)c5cccc(c6cccc2c63)c54)cc1 = 6.15 µM

Proceed to the following item.
Data request: Requested field: TGI. Item: CCOC(=O)C12CCCC1(O)N(NC(N)=O)C(C)=C2C(=O)OC (centres undefined)
Data returned: > 100 µM

---

TGI reference
# Test system: KM12 colon
# protocolDescription: NCI tumour cell line growth inhibition, 48 h
Just the number in µM, nothing appended.

Data request: Requested field: TGI. Item: `CC(=O)O[C@H]1C(=O)[C@@]2(C)[C@H]([C@H](OC(=O)c3ccccc3)[C@]3(O)C[C@H](OC(=O)[C@H](O)[C@@H](NC(=O)c4ccccc4)c4ccccc4C)C(C)=C1C3(C)C)[C@]1(OC(C)=O)CO[C@@H]1C[C@@H]2O`
Data returned: 5.75

Data request: Requested field: TGI. Item: `COc1ccc(/C=C/C(=O)c2cc3c(N)c(C(=O)Nc4cccc(Cl)c4C)sc3nc2C)cc1`
Data returned: 6.82

Data request: Requested field: TGI. Item: `Oc1ccc(O)c(Cc2ccccc2)c1`
Data returned: 65.2

Data request: Requested field: TGI. Item: `C[n+]1c(-c2ccccc2)c2cc(N)ccc2c2ccccc21`
Data returned: 14.8

Data request: Requested field: TGI. Item: `CNCC(=O)Nc1ccc2c(c1)C(=O)c1ccc(NC(=O)CNC)cc1C2=O`
Data returned: 10.4

Data request: Requested field: TGI. Item: CC[C@]12C=CCN3CC[C@@]4(c5cc(N=O)c(OC)cc5N(C)[C@H]4[C@@](O)(C(=O)NC(Cc4c[nH]c5ccccc45)C(=O)OC)[C@@H]1O)[C@@H]32 (stereo partly drawn)
Data returned: 26.1

Data request: Requested field: TGI. Item: COc1ccc(C(=O)NCCC2CN(S(=O)(=O)C(F)(F)F)c3ccccc32)c(OC)c1 (stereo not drawn)
Data returned: 71.3

Data request: Requested field: TGI. Item: `CC/C=C/C[C@H](O[Si](C)(C)C(C)(C)C)[C@H]1C[C@H]2O[C@H]([C@@H](O)C#C[Si](C)(C)C)C[C@H]2O1`
Data returned: 39.2

Data request: Requested field: TGI. Item: `CCC[CH2][Sn]1([CH2]CCC)[O]C(=O)c2cccc(C)c2[O]1`
Data returned: 2.36

Measured values drawn from PubChem BioAssay (NCI) for this set.
